Reported MIC values for the following compounds.
System: Escherichia coli
Assay: Inhibition of LspA in Escherichia coli CFT073imp4213 harboring outer membrane-permeable mutant assessed as inhibition of bacterial growth
Starred links: 1 amine or outer side, 2 acyl side, 3 side chain; linkers in the order of their positions; H or OH if unused. Non-standard residues stand in square brackets, D forms with d. Residues, ends and D or L forms follow the SMILES beside them. *: point of attachment. X1 = CCCCCC[C@@H](OC[C@@H](C)N[*:1])[C@@H](C)C(=O)[*:2]; Gly(cHept) = N[C@H](C(=O)O)C1CCCCCC1; NMeNva = CCC[C@H](NC)C(=O)O; X14 = NCCN1CC[C@H](*)C1; Dap = NC[C@H](N)C(=O)O
Only the number, expressed in nM, is required.

| COMPOUND | TARGET_DESC | UNIT_ABBREV | MIC |
| --- | --- | --- | --- |
| CCCCCC[C@H]1OC(=O)CNC(=O)[C@H]([C@H](C)O)NC(=O)[C@H](CN)NC(=O)[C@H](c2ccccc2)NC(=O)[C@H](CC(C)C)N(C)C(=O)[C@@H]1C | Escherichia coli | nM | 1600 |
| CCCCCC[C@H]1OC[C@@H](C)NC(=O)[C@H](CO[C@H]2CCN(CCN)C2)NC(=O)[C@H](CN)NC(=O)[C@H](C2CCCCCC2)NC(=O)[C@H](CCC)N(C)C(=O)[C@@H]1C (cyclo([Dap]S(X14)[X1][NMeNva][Gly(cHept)])) | Escherichia coli | nM | 200 |
| CCCCCC[C@H]1OC[C@@H](C)NC(=O)[C@H](CNCCCN)NC(=O)[C@H](CN)NC(=O)[C@H](C2CCCCCC2)NC(=O)[C@H](CCC)N(C)C(=O)[C@@H]1C | Escherichia coli | nM | 280 |

Please examine the following record next.
Reported MIC (Escherichia coli) for entry CCCCCC[C@H]1OC(=O)CNC(=O)[C@H]([C@H](C)O)NC(=O)[C@H](CN)NC(=O)[C@H](C2CCCCCC2)NC(=O)[C@H](CC(C)C)N(C)C(=O)[C@@H]1C is 14

---

Assay: Lipophilicity, logD of the compound at pH 7.4
Conditions: buffer, pH 7.4, logD
Starred links: 1 amine or outer side, 2 acyl side, 3 side chain; linkers in the order of their positions; H or OH if unused. Non-standard residues stand in square brackets, D forms with d. Residues, ends and D or L forms follow the SMILES beside them. *: point of attachment. X1 = CCCCCC[C@@H](OC[C@@H](C)N[*:1])[C@@H](C)C(=O)[*:2]; Cyclobutyl(trans-3-NH2) = N[C@H]1C[C@H](*)C1; X4 = CCCCCCN(CCN[*:1])[C@@H](C)C(=O)[*:2]; Propyl(3-guanidino) = N=C(N)NCCC*; NMeL = CN[C@@H](CC(C)C)C(=O)O; Chg = N[C@H](C(=O)O)C1CCCCC1; Dap = NC[C@H](N)C(=O)O
READOUT_KIND: logD
Just the number, please, no unit after it.

# count of solved cases: 3
| MOLECULE | logD |
| --- | --- |
| CCC[C@H]1C(=O)N[C@@H](C2CCCCCC2)C(=O)N[C@@H](CN)C(=O)N[C@@H]([C@H](C)O)C(=O)NCC(=O)O[C@H](CC2CC3CCC2C3)[C@@H](C)C(=O)N1C (stereo in doubt; 26) | 2.8 |
| CCCCCCN1CCNC(=O)[C@H](CO[C@H]2C[C@H](N)C2)NC(=O)[C@H](CN)NC(=O)[C@H](C2CCCCC2)NC(=O)[C@H](CC(C)C)N(C)C(=O)[C@@H]1C (cyclo([Chg][Dap]S(Cyclobutyl(trans-3-NH2))[X4][NMeL])) | 1 |
| CCCCCC[C@H]1OC(=O)CNC(=O)[C@H]([C@H](C)O)NC(=O)[C@H](CO)NC(=O)[C@H]([C@H](C)CC)NC(=O)[C@H](CC(C)C)N(C)C(=O)[C@@H]1C | 3.1 |

Please examine the following record next.
The molecule listed as CCCCCC[C@H]1OC[C@@H](C)NC(=O)[C@H](COCCCNC(=N)N)NC(=O)[C@H](CN)NC(=O)[C@H](C2CCCCC2)NC(=O)[C@H](CC(C)C)N(C)C(=O)[C@@H]1C (cyclo([Chg][Dap]S(Propyl(3-guanidino))[X1][NMeL])) shows logD equal to 2
